Reference source: the supplement of paper PMC10567573

Give protein stability index for every item shown.
- assay remarks: protein stability index of a GFP-peptide fusion (GPS, HEK-293T) (PSI 1-6); higher = more stable;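 further: 24-mer peptide tiles fused after GFP, lentivirally expressed, FACS-sorted into six equal bins by GFP/DsRed ratio, decoded by Illumina sequencing, PSI is the read-weighted mean bin number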
- measurement conditions: treatment: DMSO; c terminus: a fixed tail appended
Numbers only.

RLHLAFKRQVPTEQARAYAEKNCM [RAB40C]    2.98

Please give protein stability index, item by item, for the list that follows.
1. KWLSCGFMLEIVTPTSLSSLSNAV [FBXO33]
2. PTQQDVLRTRVKTTGIVETHFTFK [GNAI1]

1: 3.04; 2: 3.05

---

- assay remarks: protein stability index of a GFP-peptide fusion (GPS, HEK-293T) (PSI 1-6); higher = more stable
- measurement conditions: treatment: DMSO; c terminus: a fixed tail appended
Give protein stability index for every item shown.
Give bare numbers.

Below: 8 sequences and their reported protein stability index.
EHKETSRNLHSHYHEAPMTRKHYQ [POMT2]    4.09
IRNRGYNLIYRSTRHLKRLALMIQ [TMEM192]    3.02
MRFASGRPAFVRVRRGHSHLAPSE    3.08
TSNSDDNMLKNIELFDKLSLRFNG [KCTD10]    3.07
ISVILPTVHEVDIFRCFCPVFLHS [DENND6A]    3.07
GSSFSGRVFRVTFLMLAVSLTVPL [APMAP]    3.06
AIQQMGGQWLGGRQIRTNWATRKP [TIA1]    2.8
MKLSLGGSEMGLSSHLQSSKAGPT [KLHL13]    3.79

Please give protein stability index, item by item, for the list that follows.
1. QTEPQDRSPAPMSCDKSTQTPSPP [BCL2L11]
2. QDEPRQGCQPEDRRRRIIINVGGI [KCNG1]
3. LLQLPDTKVGSFMIRESETKKGFY [SLA]
4. PWLCGESFTLADVSLAVTLHRLKF [GDAP1]

1. 5.58
2. 3.92
3. 2.75
4. 2.65

Please give protein stability index, item by item, for the list that follows.
1. AHSSDVLENVFSSLTDDKYDVAMN [GOLPH3L]
2. SFANDRENYDIIKTYHYLYLAMLE [FEM1B]
3. PQVLSQEFTELLKVMIHPDPERRP [WEE1]
4. ERRPVAQSTDGARGKRGYSRGLHA [SPSB2]
5. EDKIFPVPEEPPVKKLMRTSTPPP [ZBED1]
6. RHLDFHVKDLIKKLLVVDRTRRLG [PRKX]

4.74
2.44
3.45
4.52
4.8
2.57

Please give protein stability index, item by item, for the list that follows.
1. PLPEAIDPDVGVNSLQSYQLSPNK [PCDHGA10]
2. LEVMEEEELANLRASQREYEELRN [RSPH3]
3. YLLQFARKPVEAESVEGVVRILLE [INTS4]

1. 5.35
2. 5.22
3. 2.19

Recorded protein stability index for GLMVTCGTDRIVKIWDMTPVVGCS [WDFY1] , please?
2.29

---

- assay remarks: protein stability index of a GFP-peptide fusion (GPS, HEK-293T) (PSI 1-6); higher = more stable
- measurement conditions: treatment: DMSO; c terminus: a fixed tail appended
Give protein stability index for every item shown.
Give bare numbers.

Please give protein stability index, item by item, for the list that follows.
1. LSARDHQKLEREARICRLLKHPNI [CAMK2A]
2. EVLENVFRVNCYPGIDIREDLAQK [HESX1]

1. 2.98
2. 2.46

Please give protein stability index, item by item, for the list that follows.
1. CHFQALGCRTTHSNQEVLQSCLLV [PYCR3]
2. PSEHVQGKSPVNMVTVAMVAGQCE [ZNF649]

1: 2.8; 2: 4.14
